Cited source for all entries: patent US12091411B2

biological target: IRAK4 (Homo sapiens); construct: Degradation of IRAK4 in OCI-LY10 was quantitatively measured using Meso Scale Discovery technology; endogenous in cells; host or cells: OCI-LY10; assay: IRAK4 MSD Degradation in OCI-LY10; assay type: cell-based; conditions: OCI-LY10 cells, 4 hrs incubation, MSD; read-out: IRAK4 degradation in OCI-LY10 at 4 hrs: DC50
Sequence (Q9NWZ3 whole entry): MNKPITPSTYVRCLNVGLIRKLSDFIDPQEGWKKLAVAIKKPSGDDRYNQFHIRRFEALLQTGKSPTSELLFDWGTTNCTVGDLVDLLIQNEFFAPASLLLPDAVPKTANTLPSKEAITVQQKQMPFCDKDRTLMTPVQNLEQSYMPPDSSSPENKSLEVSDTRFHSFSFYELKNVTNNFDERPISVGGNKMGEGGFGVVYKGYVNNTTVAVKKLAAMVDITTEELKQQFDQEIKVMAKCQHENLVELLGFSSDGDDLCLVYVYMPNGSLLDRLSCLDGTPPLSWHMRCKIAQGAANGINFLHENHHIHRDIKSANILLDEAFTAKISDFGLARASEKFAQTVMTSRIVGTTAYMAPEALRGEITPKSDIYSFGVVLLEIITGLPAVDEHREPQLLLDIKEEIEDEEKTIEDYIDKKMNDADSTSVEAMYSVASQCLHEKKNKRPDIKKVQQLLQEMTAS
Each entry below lists one item and its recorded DC50 value.

Recorded results for 2 compounds are shown here.
[
  {
    "COMPOUND": "Cn1c(=O)n(C2CCC(=O)NC2=O)c2ccc(N3CCN(CC4COC5(C4)CN(C[C@H]4CC[C@H](n6cc(NC(=O)c7cnn8ccc(N9C[C@H]%10C[C@@H]9CO%10)nc78)c(C(F)F)n6)CC4)C5)CC3)cc21 (stereo partly drawn) [I-712]",
    "TARGET_OF_ASSAY": "IRAK4 (Homo sapiens)",
    "DC50": "> 200 nM"
  },
  {
    "COMPOUND": "Cn1c(=O)n(C2CCC(=O)NC2=O)c2cccc(C#CCN3CCN(C[C@H]4CC[C@H](n5cc(NC(=O)c6cnn7ccc(N8CC9(CCOCC9)C8)nc67)c(C(F)F)n5)CC4)CC3)c21 (stereo partly drawn) [I-316]",
    "TARGET_OF_ASSAY": "IRAK4 (Homo sapiens)",
    "DC50": "> 200 nM"
  }
]

Data request: Give the reported value of DC50 for this record: Cn1c(=O)n(C2CCC(=O)NC2=O)c2cccc(N3CCN(C4CCN(C[C@H]5CC[C@H](n6cc(NC(=O)c7cnn8ccc(N9CCC%10(COC%10)C9)nc78)c(C(F)F)n6)CC5)CC4(F)F)CC3)c21 (stereo partly drawn) [I-723]
Data returned: > 200 nM

Data request: Give DC50 for Cc1cccc(C(=O)Nc2cc3cn([C@H]4CC[C@H](CN5CCC(c6cccc7c6n(C)c(=O)n7C6CCC(=O)NC6=O)C(F)(F)C5)CC4)nc3cn2)n1 (stereo partly drawn) [I-614]
Data returned: > 200 nM

Data request: Identify DC50 associated with the compound Cn1c(=O)n(C2CCC(=O)NC2=O)c2cccc(C#CCO[C@@H]3CCCN(C[C@H]4CC[C@H](n5cc(NC(=O)c6cnn7ccc(N8C[C@H]9C[C@@H]8CO9)nc67)c(C(F)F)n5)CC4)C3)c21 (stereo partly drawn) [I-127]
Data returned: 100 to 200 nM

Data request: Write down DC50 measured for item Cn1c(=O)n(C2CCC(=O)NC2=O)c2cccc(N3CCN(CC4COC5(C4)CN(C[C@H]4CC[C@H](n6cc7cc(NC(=O)c8cccc(C(F)(F)F)n8)ncc7n6)CC4)C5)CC3)c21 (stereo partly drawn) [I-666]
Data returned: > 200 nM

Data request: Determine from records and report DC50 for Cc1cccc(C(=O)Nc2ccc3nn([C@H]4CC[C@H](CN5CCC(c6cccc7c6n(C)c(=O)n7C6CCC(=O)NC6=O)C(F)(F)C5)CC4)cc3c2)n1 (stereo partly drawn) [I-611]
Data returned: > 200 nM

Data request: Check the records and state DC50 for Cn1c(=O)n(C2CCC(=O)NC2=O)c2cccc(N3CCC(N4CCN(C[C@H]5CC[C@H](n6cc(NC(=O)c7cnn8ccc(N9C[C@H]%10C[C@@H]9CO%10)nc78)c(C(F)F)n6)CC5)CC4)CC3)c21 (stereo partly drawn) [I-367]
Data returned: > 200 nM
